IC50 for assorted compounds
Biological target: Pyruvate kinase PKM (Homo sapiens, UniProt P14618)
Sequence (P14618 whole entry): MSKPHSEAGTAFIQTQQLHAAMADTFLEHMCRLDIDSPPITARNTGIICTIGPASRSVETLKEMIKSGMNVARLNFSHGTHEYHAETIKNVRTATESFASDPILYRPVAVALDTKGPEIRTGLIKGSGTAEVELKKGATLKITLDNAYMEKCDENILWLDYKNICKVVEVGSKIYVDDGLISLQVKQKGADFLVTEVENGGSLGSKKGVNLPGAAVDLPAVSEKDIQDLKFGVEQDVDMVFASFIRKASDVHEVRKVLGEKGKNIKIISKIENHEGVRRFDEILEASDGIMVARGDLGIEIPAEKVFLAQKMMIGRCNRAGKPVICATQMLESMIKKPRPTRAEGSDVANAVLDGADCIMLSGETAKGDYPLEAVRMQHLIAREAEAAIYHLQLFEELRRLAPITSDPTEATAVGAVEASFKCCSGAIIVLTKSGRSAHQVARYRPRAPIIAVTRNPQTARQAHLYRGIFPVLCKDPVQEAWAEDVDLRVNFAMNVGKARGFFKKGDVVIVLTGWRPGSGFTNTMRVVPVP

{"columns": ["COMPOUND", "IC50 / nM"],
 "data": [
  ["CC(C)=CCC1=C(O)C(=O)c2ccccc2C1=O [LAPACHOL]", 1400],
  ["CC(C)=CC[C@@H](O)C1=CC(=O)c2c(O)ccc(O)c2C1=O [SHIKONIN]", 1420]
]}

---

Molecular target: Pyruvate kinase PKM (Homo sapiens, UniProt P14618)
Test: Activation of PKM2 (unknown origin)
PROPERTY_NAME: log10 of AC50 (log10 of the value in nM)

{"columns": ["COMPOUND", "log10 of AC50"],
 "data": [
  ["COc1ccccc1N1CCN(C(=O)c2ccc(NS(=O)(=O)c3cccc4cccnc34)cc2)CC1", 1.00],
  ["O=P(O)(O)OC[C@H]1O[C@](O)(COP(=O)(O)O)[C@@H](O)[C@@H]1O", 3.85],
  ["Nc1cccc(S(=O)(=O)N2CCCN(S(=O)(=O)c3ccc4c(c3)OCCO4)CC2)c1", 1.48],
  ["O=C(O)/C=C/c1ccc(O)cc1", 4.35],
  ["C=C1C(=O)O[C@@H]2[C@H]3O[C@]3(C)CC/C=C(/C(=O)OCCOCCOC(=O)/C3=C/CC[C@@]4(C)O[C@@H]4[C@H]4OC(=O)C(=C)[C@@H]4CC3)CC[C@@H]12", 1.18],
  ["O=C(c1cc(C(F)(F)F)n[nH]1)N(Cc1ccc(O)cc1F)CC1CCC1", 1.00],
  ["COc1cc(/C=C/C(=O)O)cc(OC)c1O [SINAPINATE]", 4.42],
  ["O=S(=O)(Nc1ccc(C2(O)CSC(=S)N2Cc2ccccc2)cc1)c1ccc2c(c1)OCCO2 (stereo not drawn)", 3.50]
]}

---

Molecular target: Pyruvate kinase PKM (Homo sapiens, UniProt P14618)
Test: Activation of PKM2 (unknown origin)

{"columns": ["COMPOUND", "UNITS_SYMBOL", "AC50"],
 "data": [
  ["O=c1c(O)c(-c2cc(O)c(O)c(O)c2)oc2cc(O)cc(O)c12 [MYRICETIN]", "nM", 510],
  ["O=C1CCc2cc(S(=O)(=O)Nc3ccc(F)c(Cl)c3)c(F)cc2N1", "nM", 90],
  ["C=C1C(=O)O[C@H]2C1CCC(C)=C1CC[C@@](C)(O)[C@@H]12 (stereo not given in full)", "nM", 6],
  ["Cn1cc(C(=O)c2cccc(Cl)c2Cl)cc1C(=O)NCCNC(=O)c1cc(C(=O)c2cccc(Cl)c2Cl)cn1C", "nM", 10],
  ["COc1ccc(-c2cc(=O)c3c(OC)c(OC)c(OC)c(OC)c3o2)cc1 [TANGERETIN]", "nM", 950]
]}

---

Tested on: HT-29
Experiment: Antiproliferative activity against human HT-29 cells assessed as cell growth inhibition
Format: functional, cell-based

{"columns": ["CHEM_SMILES", "IC50 / nM"],
 "data": [
  ["O=c1cc(-c2ccc(O)cc2)oc2cc(O)cc(O)c12", 2000]
]}
